Item-by-item account of OD450
tested-target: T1, human MSLN-R2-his protein (human, UniProt Q13421 391-486)
T1 construct: Region 2 of human mesothelin, made in HEK293E cells, His-tagged; also called human MSLN-R2 protein; hMSLN-R2-his; not shown: His tag
T1 sequence (Q13421 other isoform, or with tags, fused parts or gaps): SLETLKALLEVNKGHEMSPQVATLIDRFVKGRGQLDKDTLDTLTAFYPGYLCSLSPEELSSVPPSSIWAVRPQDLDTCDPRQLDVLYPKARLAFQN
experiment-description: ELISA on coated MSLN-R2; antibody 0.01 nM
The reply should contain only the number, in OD450.

[
  {
    "binder": "S009-F8-36.12 (antibody, human IgG1, kappa, V domains shown) VH: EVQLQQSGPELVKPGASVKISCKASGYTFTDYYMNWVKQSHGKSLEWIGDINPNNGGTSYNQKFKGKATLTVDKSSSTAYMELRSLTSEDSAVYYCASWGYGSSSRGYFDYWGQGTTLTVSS VL: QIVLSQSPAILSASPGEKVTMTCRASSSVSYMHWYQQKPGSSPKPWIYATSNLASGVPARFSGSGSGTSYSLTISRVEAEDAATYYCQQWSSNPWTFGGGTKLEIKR",
    "OD450 [OD450]": 0.04
  }
]

Reported OD450 ( S009-F8-24.14 (antibody, human IgG1, kappa, V domains shown) VH: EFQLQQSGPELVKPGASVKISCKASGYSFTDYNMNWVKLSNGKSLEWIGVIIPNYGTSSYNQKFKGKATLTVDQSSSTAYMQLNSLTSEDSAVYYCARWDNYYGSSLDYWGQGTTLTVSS VL: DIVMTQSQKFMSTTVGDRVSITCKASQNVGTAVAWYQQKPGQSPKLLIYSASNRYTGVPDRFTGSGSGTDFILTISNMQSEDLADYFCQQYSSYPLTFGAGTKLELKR ) = 0.04

Reported OD450 ( S009-F8-29.1 (antibody, human IgG1, kappa, V domains shown) VH: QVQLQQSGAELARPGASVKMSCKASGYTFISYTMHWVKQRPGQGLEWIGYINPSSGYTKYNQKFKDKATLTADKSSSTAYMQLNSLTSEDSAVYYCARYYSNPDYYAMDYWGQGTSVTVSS VL: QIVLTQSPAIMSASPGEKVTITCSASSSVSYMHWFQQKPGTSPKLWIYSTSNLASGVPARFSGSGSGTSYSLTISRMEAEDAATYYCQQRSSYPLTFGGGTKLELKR ) = 0.04

The measurements presented in this section are drawn from patent US20250250357A1.
